Read-out: Tissue Factor, F3 (gene 2152)
assay.info: BSK_LPS_TissueFactor: BioMAP Diversity Plus: LPS Assay for Tissue Factor Biomarker Activity (AID 2283084)
test.context: primary human HUVEC with PBMC; actives raise or lower the signal
The source made the active and inactive calls. The calls were made as follows: active = hit-call score of the fitted dose curve at least 0.9, where 1 is the maximum; inactive = score below 0.9.
Write down the outcome that applies. Available outcomes: active, inactive

| molecule | assigned.label |
| --- | --- |
| [Cl][Sn]([c]1ccccc1)([c]1ccccc1)[c]1ccccc1 | active |
| O=S(=O)(c1ccc(Cl)cc1)c1cc(Cl)c(Cl)cc1Cl | inactive |
| Oc1c(Cl)cc(Cl)cc1Cl | inactive |
| Cc1ccccc1OP(=O)(Oc1ccccc1)Oc1ccccc1 | inactive |

(Q) Answer briefly: the call reported for CC(C)(COCC1CO1)COCC1CO1 (stereo not drawn) in this assay.
(A) inactive

(Q) Answer briefly: the call reported for CN(C)C(=S)S in this assay.
(A) inactive

(Q) Answer briefly: the call reported for Nc1c(Oc2ccccc2)cc(O)c2c1C(=O)c1ccccc1C2=O in this assay.
(A) active

(Q) Answer briefly: the call reported for OCCCCO in this assay.
(A) inactive

(Q) Answer briefly: the call reported for c1ccc2sc(SNC3CCCCC3)nc2c1 in this assay.
(A) active

(Q) Answer briefly: the call reported for Nc1ccc(N)cc1 in this assay.
(A) active

(Q) Answer briefly: the call reported for CC(C)(C)c1cc([N+](=O)[O-])cc(C(C)(C)C)c1O in this assay.
(A) inactive

(Q) Answer briefly: the call reported for Cc1cccc(OP(=O)(Oc2cccc(C)c2)Oc2cccc(C)c2)c1 in this assay.
(A) inactive

(Q) Answer briefly: the call reported for O=C(O)COc1cc(Cl)c(Cl)cc1Cl in this assay.
(A) inactive

(Q) Answer briefly: the call reported for O=C(Cc1ccccc1)OCCc1ccccc1 in this assay.
(A) inactive

(Q) Answer briefly: the call reported for CCOC(=O)C(SP(=S)(OC)OC)c1ccccc1 (stereo not drawn) in this assay.
(A) inactive

(Q) Answer briefly: the call reported for O=[N+]([O-])c1ccc(Nc2ccccc2)cc1 in this assay.
(A) inactive

(Q) Answer briefly: the call reported for O=c1oc2ccccc2c(O)c1C(CC(O)c1ccc(-c2ccc(Br)cc2)cc1)c1ccccc1 (stereo not drawn) in this assay.
(A) active

(Q) Answer briefly: the call reported for Oc1cccc(-c2ccccc2)c1 in this assay.
(A) active

(Q) Answer briefly: the call reported for OCCN(CCO)CCO in this assay.
(A) inactive

(Q) Answer briefly: the call reported for C=CC(Cl)CCl (stereo not drawn) in this assay.
(A) inactive

(Q) Answer briefly: the call reported for Cc1cc(Cl)ccc1N in this assay.
(A) inactive
